These entries and their values trace back to PubChem BioAssay (NCI).

System: NCI-H522 lung
run.description: NCI tumour cell line growth inhibition, 48 h
Consider the following compounds; for each one, report its TGI.

# lookup: TGI of "CN(C)C(=O)Oc1ccc[n+](C)c1"
> 100 µM

Quick check: TGI of "N#C/C(=C/c1cccc2ccccc12)C(=O)c1ccccc1" ?
54.6 µM

Data request, read-out TGI, for O=C(Nc1nc(=S)[nH][nH]1)C(=O)C1C(=O)Nc2ccccc2S1=O (centres undefined)
> 100 µM

What TGI value was documented for this compound, "CC(=O)COC(=O)CC(C)=O" ?
> 100 µM

###

Tested on: RPMI-8226 leukemia
run.description: NCI tumour cell line growth inhibition, 48 h
readout.type: TGI (µM)
Report only the number, with the unit µM understood.

# TGI lookup, item "CN1CCN(CCOc2ccc(-c3cnc4c(-c5cccc(F)c5F)cnn4c3)cc2)CC1"
4.01

// query TGI value for entry "CC(C)NC(=O)OCc1c(COC(=O)NC(C)C)n(C)c2c1ccc1ccsc12"
20.3

# input compound: "Cc1cc2nc(CS)[nH]c2cc1C" ; wanted: its TGI
40.7
